These measurements were taken from the RNAGym collection of RNA variant scans (doi:10.1126/science.aae0568).

B1: tRNA (parent)
chain: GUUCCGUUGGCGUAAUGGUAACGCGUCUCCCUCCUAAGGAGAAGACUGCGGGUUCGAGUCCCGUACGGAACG

variants of: B1; experiment: yeast fitness relative to wild type (ratio to wild type); higher = fitter; tRNA-Arg(CCU), competitive growth, 37 C, YPD
Fewer inactive variants are shown than the library holds.
recorded-metric: yeast fitness

Here is how some variants turned out for yeast fitness.
var	yeast fitness
G12C U47G C49A A69U	≤ 0.5
G9C A45C A65C	≤ 0.5
U8C C22U G23C C33G C49U	≤ 0.5
U16A G18C C31U G51C	≤ 0.5
G6C A20G C22A C31G	≤ 0.5

Lookup: // yeast fitness lookup, key: A36C U54C
Found: ≤ 0.5

Lookup: // yeast fitness lookup, key: U3C A45C C49U
Found: 0.712

Lookup: // yeast fitness lookup, key: C29A A40U U47A
Found: 0.772

Lookup: // yeast fitness lookup, key: C4G C24A C46U A70G
Found: ≤ 0.5

Lookup: // yeast fitness lookup, key: A15U G25A
Found: 1

Lookup: // yeast fitness lookup, key: U16C C27G
Found: 0.727

Lookup: // yeast fitness lookup, key: C4G A36G G38A A40U
Found: ≤ 0.5

Lookup: // yeast fitness lookup, key: C24U C29U C49G
Found: ≤ 0.5

Lookup: // yeast fitness lookup, key: G12C C24G U35C
Found: ≤ 0.5

Lookup: // yeast fitness lookup, key: U7G U35A A43C
Found: 0.532

Lookup: // yeast fitness lookup, key: C5A C11U C34A A40U A42U C49A G50C A57C C66G
Found: ≤ 0.5

Lookup: // yeast fitness lookup, key: U3A G10C G39C G48A
Found: ≤ 0.5

Lookup: // yeast fitness lookup, key: A14U A43C U54A
Found: ≤ 0.5

Lookup: // yeast fitness lookup, key: U3A C30U U54A
Found: ≤ 0.5

Lookup: // yeast fitness lookup, key: A57C C60U A69C
Found: ≤ 0.5

Lookup: // yeast fitness lookup, key: C31U G52A G68C
Found: ≤ 0.5
